# EXPERIMENTAL TARGET: neutrophil elastase (Homo sapiens)
# TEST SUMMARY: Human Neutrophil Elastase Assay
# CONDITION: substrate MeOSuc-Ala-Ala-Pro-Val-AMC, pH 7.5, room temperature
VALUE KIND: IC50

Some solved entries appear below for comparison.
>  <COMPOUND>
N#Cc1ccc(C2C3=C(CCCC3=O)N(c3cccc(C(F)(F)F)c3)C(=O)N2C(=O)NCC(F)F)cc1 (stereo not shown) [Example 70.6]

>  <TEST RESULT>
< 1 nM

$$$$
>  <COMPOUND>
CS(=O)(=O)CCNC(=O)N1C(=O)N(c2cccc(C(F)(F)F)c2)C2=C(C(=O)CCC2)C1c1ccc(C#N)cc1S(C)(=O)=O (stereo not shown) [Example 47.4]

>  <TEST RESULT>
< 1 nM

$$$$
>  <COMPOUND>
N#CCNC(=O)N1C(=O)N(c2cccc(C(F)(F)F)c2)C2=C(C(=O)CCC2)C1c1ccc(C#N)cc1 (stereo not shown) [Example 70.2]

>  <TEST RESULT>
< 1 nM

$$$$
>  <COMPOUND>
CC(C)NC(=O)N1C(=O)N(c2cccc(C(F)(F)F)c2)C2=C(C(=O)CCC2)C1c1ccc(C#N)cc1 (stereo not shown) [Example 70.4]

>  <TEST RESULT>
1.4 nM

$$$$
>  <COMPOUND>
N#Cc1ccc(C2C3=C(CCCC3=O)N(c3cccc(C(F)(F)F)c3)C(=O)N2C(=O)NCC2CC(O)C2)cc1 (stereo not shown) [Example 70.15]

>  <TEST RESULT>
< 1 nM

$$$$
>  <COMPOUND>
N#Cc1ccc(C2C3=C(CCCC3=O)N(c3cccc(C(F)(F)F)c3)C(=O)N2C(=O)NC2CCOC2)cc1 (stereo not shown) [Example 70.8]

>  <TEST RESULT>
< 1 nM

$$$$

Query block: Field request: IC50 | item: CN1C(=O)N(c2ccnc(C(F)(F)F)c2)C2=C(C(=O)CCC2)C1c1ccc(C#N)cc1S(C)(=O)=O (stereo not shown) [Example 64]
Result block: 3.6 nM

====

# EXPERIMENTAL TARGET: neutrophil elastase (Homo sapiens, UniProt P08246)
# Sequence (P08246 30-247 limits assumed): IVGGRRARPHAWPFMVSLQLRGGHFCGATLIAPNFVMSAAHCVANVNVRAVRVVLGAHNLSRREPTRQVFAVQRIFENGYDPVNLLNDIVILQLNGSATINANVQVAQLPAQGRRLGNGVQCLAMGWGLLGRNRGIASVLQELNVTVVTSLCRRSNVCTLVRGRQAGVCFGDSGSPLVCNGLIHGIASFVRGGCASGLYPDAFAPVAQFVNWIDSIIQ
# TEST SUMMARY: Human Neutrophil Elastase Assay
# CONDITION: substrate MeOSuc-Ala-Ala-Pro-Val-AMC, pH 7.5, room temperature
VALUE KIND: IC50 (nM)
API: value field is a number in nM; no unit string.

>  <COMPOUND>
N#Cc1ccc(C2NC(=O)N(c3cccc(C(F)(F)F)c3)C3=C2C(=O)CC(c2cccs2)C3)cc1 (stereo not shown)

>  <UNIT ABBREV>
nM

>  <IC50>
41.7

$$$$
>  <COMPOUND>
Cc1cc(C#N)ccc1C1NC(=O)N(c2cccc(C(F)(F)F)c2)C2=C1C(=O)CCC2 (stereo not shown)

>  <UNIT ABBREV>
nM

>  <IC50>
18.7

$$$$
>  <COMPOUND>
N#Cc1ccc(C2C3=C(CCCC3=O)N(c3cccc(C(F)(F)F)c3)C(=O)N2CC2CCOCC2)cc1 (stereo not shown)

>  <UNIT ABBREV>
nM

>  <IC50>
11.8

$$$$

Query block: What value of measured IC50 is listed for CN(C)CCCN(C)C(=O)CN1C(=O)N(c2cccc(C(F)(F)F)c2)C2=C(C(=O)CCC2)C1c1ccc(C#N)cc1 (stereo not shown) ?
Result block: 12.1
